# System: LXFL 529
# EXPERIMENT: NCI tumour cell line growth inhibition, 48 h
Activity calls are given as the source filed them. Cut-off read from the data, not from the text of the source: active = GI50 up to about 1.1 µM and inactive = higher.
Allowed answers: active, inactive

{"columns": ["COMPOUND", "CLASS LABEL"],
 "data": [
  ["CN1CCC(c2c(O)cc(O)c3c(=O)cc(-c4ccccc4Cl)oc23)C(O)C1 (stereo unspecified)", "active"],
  ["CC(=O)OCc1cc(OC(C)=O)cnc1COC(C)=O", "inactive"],
  ["SCc1ccc(-c2ccc(CS)cc2)cc1", "inactive"],
  ["CC1(C)C(=O)/C=C\\C(=O)C(C)(C)C2=CC=C(O2)C(C)(C)C(=O)/C=C\\C(=O)C(C)(C)C2=CC=C1O2", "inactive"]
]}

Q. Outcome? CC1=Nc2ccccc2C1C(Cc1ccccc1N)c1c(C)[nH]c2ccccc12 (stereo unspecified)
A. inactive

Q. Okay, and Cn1c2ccccc2c(=O)c2c([N+](=O)[O-])ccc(NCCN)c21 ?
A. inactive

* * *

# Test system: PC-3
# EXPERIMENT: NCI tumour cell line growth inhibition, 48 h
The source made the active and inactive calls. Cut-off read from the data, not from the text of the source: active = GI50 up to about 1.1 µM and inactive = higher.
RECORDED ENDPOINT: GI50

{"columns": ["COMPOUND", "OBSERVED RESULT"],
 "data": [
  ["COc1cc2ccccc2oc1=O", "> 100 µM (inactive)"]
]}

Q. Find the recorded GI50 belonging to O=C(NCCCCCCNC(=O)n1cc(F)c(=O)[nH]c1=O)NCCCOCCOCCOCCOCCOCCOCCOCCOCCOCCOCCOCCOCCOCCOCCOCCOCCOCCOCCOCCOCCOCCCNC(=O)C(O)C(O)C(OC1OC(CO)C(O)C(O)C1O)C(O)CO (centres undefined) and report it.
A. 55.2 µM (inactive)

* * *

# Test system: DLD-1
# EXPERIMENT: NCI tumour cell line growth inhibition, 48 h
Active and inactive are the calls of the source. Rule as the data show it: active = GI50 up to about 1.1 µM and inactive = higher.
Recorded GI50 by entry

{"columns": ["COMPOUND", "GI50"],
 "data": [
  ["N[C@H](COCc1ccccc1)c1ccccc1", "24.9 µM (inactive)"],
  ["COC(=O)C1=C(C(=O)OC)C(C(=O)OC)C(C(=O)OC)=C1C(=O)OC", "> 100 µM (inactive)"],
  ["COc1ccc(/C=C/c2onc3c(=O)n(C)nc(-c4ccccc4)c23)cc1", "> 100 µM (inactive)"],
  ["COc1cc(C2C(Cl)C(=O)N2NC(=O)c2ccc(NC(C)=O)cc2)cc(OC)c1OC (stereo unspecified)", "> 100 µM (inactive)"],
  ["N#CCCN(CCC#N)c1ccc(/C=C2\\N=C(c3cc([N+](=O)[O-])ccc3Cl)N(S(=O)(=O)c3ccccc3)C2=O)cc1", "> 100 µM (inactive)"]
]}

Please look at the following compound next.
Q. Find the recorded GI50 belonging to O=C(O)CSc1nnc(/C=C/c2ccccc2)[nH]1 and report it.
A. > 100 µM (inactive)

* * *

# Tested on: NCI-H23
# EXPERIMENT: NCI tumour cell line growth inhibition, 48 h
Activity calls are given as the source filed them. Rule as the data show it: active = GI50 up to about 1.1 µM and inactive = higher.
Allowed answers: t for active, f for inactive

{"columns": ["COMPOUND", "MEASURED ON", "CLASS LABEL"],
 "data": [
  ["COc1cc(O)c(Cc2ccccc2O)c(O)c1C(=O)CCc1ccccc1", "NCI-H23", "f"],
  ["O=C(O)CSc1nnc(/C=C/c2ccccc2)[nH]1", "NCI-H23", "f"],
  ["COc1c(C(C)(C)C)cc(CC2C(=O)C=CC2=O)cc1C(C)(C)C", "NCI-H23", "f"],
  ["COc1ccc2c(c1)CCN1CCc3ccccc3CC21 (stereo not given)", "NCI-H23", "f"],
  ["O=C1C2c3[nH]c4ccccc4c3C3CCCCCC3C2C(=O)N1c1ccccc1 (stereo not given)", "NCI-H23", "f"]
]}

Q. Outcome? CCCCC(=O)NC1(c2cc3ccccc3s2)CCCCC1
A. f

Q. Okay, and CCN(CC)CCCC(C)Nc1ccnc2cc3ccccc3cc12 (stereo not given) ?
A. f

Q. Okay, and Cc1c2oc(=O)c(C#N)cc2c2ccccn12 ?
A. f

Q. Okay, and COc1cc([C@@H]2c3cc4c(cc3C[C@H]3COC(=O)[C@@H]32)OCO4)cc2c1OCO2 ?
A. t

Q. Okay, and C=C[C@@H]1OC(=O)O[C@H]1CO ?
A. f

Q. Okay, and CCc1ccc(Nc2cc(=O)[nH]c(SCc3ccccc3)n2)cc1 ?
A. f

Q. Okay, and Cn1c2ccccc2c(=O)c2c([N+](=O)[O-])ccc(NCCN)c21 ?
A. f

Q. Okay, and COc1cc(C2SCC(=O)N2Cc2ccccc2)cc(OC)c1OC (stereo not given) ?
A. f

Q. Okay, and N#Cc1cccc(C2C(=O)c3ccc(C(=O)c4ccc5c(c4)C(=O)N(c4ccc(Oc6ccc(N7C(=O)c8ccc(C(=O)c9ccc%10c(c9)C(=O)N(c9cccc(C#N)c9)C%10=O)cc8C7=O)cc6)cc4)C5=O)cc3C2=O)c1 (stereo not given) ?
A. f

Q. Okay, and COC(=O)C1(C(=O)OC)CC(=O)c2cc3c(cc2-c2c(cc(OC)c(OC)c2OC)C1)OCO3 ?
A. f

Q. Okay, and NC(=O)c1nnc2ccc(F)cc2c1N ?
A. f

Q. Okay, and CC(C)(CO)NC(=O)c1cccc(C(=O)NC(C)(C)CO)c1Br ?
A. f

Q. Okay, and C[n+]1ccc(Nc2ccc(NC(=O)c3ccc(Nc4cc[n+](C)c5ccc([N+](=O)[O-])cc45)cc3[N+](=O)[O-])cc2)cc1 ?
A. f

Q. Okay, and COc1ccc(/C=C/C(=O)c2cc(C(C)(C)C)c(O)c(C(C)(C)C)c2)cc1OC ?
A. f

Q. Okay, and CC1(C)O[C@H]2OC(CO)C(OS(C)(=O)=O)[C@H]2O1 (stereo not given in full) ?
A. f

// data source = ChEMBL document CHEMBL1201862
